Listed here are molecules together with their documented inhibition.
target: L-lactate dehydrogenase (Plasmodium falciparum (isolate CDC / Honduras)); assay: PfLDH activity inhibition – cell lysate, 3D7 strain, counter-screen for P. falciparum growth inhibition project (AID 2304);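 also: 0% = vehicle and 100% = reference inhibitor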; conditions: P. falciparum 3D7 crude extract, LDH APAD/NBT absorbance; at 2 µM; hits give high values
Quick reminder: number only, in %, skip the unit.

Input: Could you tell me which inhibition is on file for CC(CN1CCN(C)CC1)C(=O)Nc1ccc(-c2cccc(-c3nc4ccccc4[nH]3)c2)cc1 (centres undefined) ?
Output: 3

Input: Could you tell me which inhibition is on file for O=C(NCCCN1CCOCC1)c1ccc(-c2cccc(NC(=O)c3ccc(Cl)c(Cl)c3)c2)cc1 ?
Output: 3

Input: Could you tell me which inhibition is on file for CCN(CC)C(=O)c1cccc(/C=C/c2ccc(-c3c(C)[nH]c(C)c(Cl)c3=O)cc2)c1 ?
Output: 6

Input: Could you tell me which inhibition is on file for CN1CCC(N2CCN(Cc3cccc(-c4ccc(-c5nc6ccc(C(F)(F)F)cc6[nH]5)cc4)c3)CC2)CC1 ?
Output: 4

====

Listed here are compounds together with their documented inhibition.
experiment: HepG2 cytotoxicity, primary screen, cytotoxicity control for P. falciparum antimalarial project, cell-based, ATP luminescence (AID 2303); conditions: HepG2 viability, 24-48 h, at 10 µM, hits give high values;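 also: 0% = DMSO wells and 100% = digitonin-killed cells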
Quick reminder: number only, in %, skip the unit.

INSERT INTO results (compound, readout_type, value) VALUES
  ('Cn1nc(-c2cccc(CNC3CCc4ccccc43)c2)c2cnc(NC3CCCC3)nc21 (configuration not stated)', 'inhibition', 14),
  ('O=C(c1cccc(-c2cccc(-c3nc4ccccc4[nH]3)c2)c1)N1CCCCC1CN1CCC(O)C1 (configuration not stated)', 'inhibition', 66),
  ('COc1cccc(NC(=O)N2CCOC(CCN3CCC4(CCc5ccccc54)CC3)(c3ccc(Cl)c(Cl)c3)C2)c1 (configuration not stated)', 'inhibition', 97),
  ('O=C(C=Cc1cc([N+](=O)[O-])ccc1Cl)N1CCC(CCN2CCC(c3c[nH]c4ccccc34)CC2)CC1', 'inhibition', 25),
  ('O=C(Nc1ccc2ccccc2c1)c1ccc(CN2CCC(Cc3ccccc3)CC2)cc1', 'inhibition', 38);

Input: Could you tell me which inhibition is on file for O=C(Nc1ccc(-c2cccc(-c3nc4ccc(C(F)(F)F)cc4[nH]3)c2)cc1)c1ccc(=O)[nH]n1 ?
Output: 72

Input: Could you tell me which inhibition is on file for Fc1ccc2[nH]c(-c3ccccc3)nc2c1CN1CCC(N2CCCC2)CC1 ?
Output: 2

====

Listed here are compounds together with their documented growth inhibition.
experiment: inhibition of 3D7 malaria parasite growth – strain 3D7 (AID 2306);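 also: 0% = DMSO wells and 100% = chloroquine plus artemisinin control wells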; settings: P. falciparum 3D7 erythrocytic growth, LDH absorbance, 72 h; at 2 µM; hits give high values
Quick reminder: number only, in %, skip the unit.

INSERT INTO assay_data (compound, readout_type, value) VALUES
  ('O=C(NCCN1CCCC1)c1cccc(-c2ccc(-c3nc4ccc(F)cc4[nH]3)cc2)c1', 'growth inhibition', 99),
  ('COc1ccc2nccc([C@@H](O)CN3CCC(NC(=O)c4ccc5nc(-n6cccc6)sc5c4)CC3)c2c1', 'growth inhibition', 90),
  ('CNc1ccc(CNCc2ccc(-c3ccc(-c4nc5c(C)cccc5[nH]4)cc3)cc2)cc1', 'growth inhibition', 100),
  ('CNC(=O)c1cnc(Nc2ccc(N3CCN(C)CC3)cc2)nc1Nc1ccccc1OC', 'growth inhibition', 100);

Input: Could you tell me which growth inhibition is on file for COc1ccc(NC(=O)c2ccc(-c3nc(-c4ccccc4)cs3)cc2)cc1N1CCN(C)CC1 ?
Output: 93

Input: Could you tell me which growth inhibition is on file for CCCCCN1CCC(NS(=O)(=O)c2ccc(C(=O)Nc3cccc(C(F)(F)F)c3)cc2)C1 (centres undefined) ?
Output: 94

Input: Could you tell me which growth inhibition is on file for N#Cc1ccc(-c2nc(CO)c(C(=O)NCCCCN3CCC(c4ccc5c(c4OCC(N)=O)CCCC5)CC3)s2)cc1 ?
Output: 92

Input: Could you tell me which growth inhibition is on file for COc1ccc2nccc([C@@H](O)CN3CCC(NCCOc4ccc(F)cc4[N+](=O)[O-])CC3)c2c1 ?
Output: 99

Input: Could you tell me which growth inhibition is on file for COc1cc2c(=O)c(Cc3ccc(Cl)cc3)c(C)[nH]c2cc1F ?
Output: 85

====

target: Calcium-dependent protein kinase 4 (Plasmodium falciparum (isolate 3D7)) (UniProt Q8IBS5); assay: PfCDPK4 kinase inhibitors, biochemical, TCAMS library (AID 1159588); settings: recombinant PfCDPK4, Kinase-Glo ATP depletion luminescence
Sequence (Q8IBS5 whole entry, looked up): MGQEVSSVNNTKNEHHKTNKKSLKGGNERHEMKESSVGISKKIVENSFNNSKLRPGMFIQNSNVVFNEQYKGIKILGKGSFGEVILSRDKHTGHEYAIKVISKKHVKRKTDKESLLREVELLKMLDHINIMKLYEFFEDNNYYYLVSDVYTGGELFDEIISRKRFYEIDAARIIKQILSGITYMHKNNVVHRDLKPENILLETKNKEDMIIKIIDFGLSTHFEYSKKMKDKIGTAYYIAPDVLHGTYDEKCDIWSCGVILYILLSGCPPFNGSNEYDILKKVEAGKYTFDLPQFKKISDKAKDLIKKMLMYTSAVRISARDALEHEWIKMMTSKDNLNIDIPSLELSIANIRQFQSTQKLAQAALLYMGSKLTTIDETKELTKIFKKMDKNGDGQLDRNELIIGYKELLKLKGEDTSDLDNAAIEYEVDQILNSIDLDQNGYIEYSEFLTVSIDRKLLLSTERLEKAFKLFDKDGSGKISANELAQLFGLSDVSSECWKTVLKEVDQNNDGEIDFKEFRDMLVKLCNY
Potency and affinity values are given separately. The source made the active and inactive calls. Cut-off not given; nearly all actives show IC50 up to about 0.91 µM.
readout type: outcome

Observe how each entry below is paired with its result.
INSERT INTO results (compound, value) VALUES
  ('COc1cc(F)c2ncc(F)c(CCN3C[C@H](CNCc4ccc5c(n4)NC(=O)CS5)[C@H](O)C3)c2c1', 'inactive'),
  ('N#Cc1cccc(C(=O)Nc2ccc(-c3ccc(CN4CCCC4)cc3)cc2)c1', 'inactive'),
  ('O=C(C=Cc1ccc(Cl)c(Cl)c1)NCCCCCN1CCC(CCCNS(=O)(=O)c2cccc(C(F)(F)F)c2)CC1', 'inactive'),
  ('COc1ccc(-n2nc(C)c3c2NC(=O)CC3c2ccccc2OCc2ccccc2F)cc1 (centres undefined)', 'inactive'),
  ('COc1cc(OC)cc(C(=O)Nc2cccc(-c3cn4ccc(C)cc4n3)c2)c1', 'inactive'),
  ('C=CCNC(CCCCC)c1ccc(OCCOc2ccc(C(CCCCC)NCC=C)cc2)cc1 (centres undefined)', 'inactive'),
  ('CN(C)CCCOc1ccc(CNCc2cccc(Oc3ccc(Cl)cc3)c2)cc1', 'inactive'),
  ('COc1ccc2ncc(C)c(CCN3CCC(NCc4ccc5c(n4)NC(=O)CS5)CC3)c2c1', 'inactive');

Input: Could you tell me which outcome is on file for O=C(Nc1ccc(OC2CCN(Cc3ccc(F)cc3)CC2)c(Cl)c1)c1ccsc1 ?
Output: inactive

====

assay: HepG2 cytotoxicity, primary screen, cytotoxicity control for P. falciparum antimalarial project, cell-based, ATP luminescence (AID 2303); conditions: HepG2 viability, 24-48 h, at 10 µM;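 also: 0% = DMSO wells and 100% = digitonin-killed cells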
Active and inactive are the calls of the source.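 How the source made its calls: active means inhibition above 50%; inactive means the rest.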
Field 'call' accepts active, inactive

Example cases with answers are listed next.
INSERT INTO measurements (compound, assigned_label) VALUES
  ('O=C(Nc1cccc(C(F)(F)F)c1)c1cccc(S(=O)(=O)NC2CCCN(CC3CCCCC3)C2)c1 (stereo not given)', 'inactive'),
  ('O=C(/C=C/c1ccc(C(F)(F)F)cc1)NCCCCCN1CCC(c2c[nH]c3ccccc23)CC1', 'active');

Input: Status in this test for CN1CCN(CC(=O)Nc2cccc(-c3ccc(-c4nc5ccc(C(F)(F)F)cc5[nH]4)s3)c2)CC1 ?
Output: inactive

Input: Status in this test for CCN(CC)CCCNCc1ccc(-c2ccc(C(F)(F)F)cc2)cc1 ?
Output: active

Input: Status in this test for CN1CCN(CCCN(Cc2ccc(-c3ccc(CNC4CCCC4)cc3)cc2)C(=O)CCC2CCCC2)CC1 ?
Output: active

====

molecular target: Calcium-dependent protein kinase 4 (Plasmodium falciparum (isolate 3D7)) (UniProt Q8IBS5); experiment: PfCDPK4 kinase inhibitors, biochemical, TCAMS library (AID 1159588); conditions: recombinant PfCDPK4, Kinase-Glo ATP depletion luminescence
Results with a measured potency or affinity are listed apart. Calls of active or inactive are those of the source. No cut-off is given here; in the data, nearly all actives have IC50 up to about 0.91 µM.
readout type: outcome

Observe how each entry below is paired with its result.
INSERT INTO assay_data (compound, readout_type, value) VALUES
  ('O=C(Nc1ccc2oc(-c3ccc(Br)cc3)nc2c1)c1ccc([N+](=O)[O-])o1', 'outcome', 'inactive'),
  ('NC1CCN(Cc2cccc(-c3ccc(-c4nc5ccccc5[nH]4)s3)c2)C1 (stereo not given)', 'outcome', 'inactive'),
  ('COc1cccc(Nc2nc(C)cc(NCc3ccc(-n4ccnc4)cc3)n2)c1', 'outcome', 'inactive'),
  ('Cc1cccc2[nH]c(-c3ccc(-c4ccc(CNCc5cccc(N)c5)cc4)s3)nc12', 'outcome', 'inactive'),
  ('COc1cc2nc(NCCc3ccccc3)nc(NCc3nccs3)c2cc1OC', 'outcome', 'inactive');

Input: Could you tell me which outcome is on file for NC1=NC(C=Cc2ccccc2)N(OCCCCCCON2C(N)=NC(N)=NC2C=Cc2ccccc2)C(N)=N1 (stereo not given) ?
Output: inactive

Input: Could you tell me which outcome is on file for CCc1nc(N)nc(N)c1-c1ccc(C(C)(C)C)cc1 ?
Output: inactive

Input: Could you tell me which outcome is on file for COc1cc(-n2cnc3cc(-c4ccc(Cl)cc4)sc3c2=O)ccc1OCCN1CCC(c2cccc(NC(C)=O)c2)CC1 ?
Output: inactive

Input: Could you tell me which outcome is on file for CC(C)(C)OC(=O)NCCc1cccc(-c2c[nH]c3ncc(-c4cccc(NS(C)(=O)=O)c4)cc23)c1 ?
Output: inactive

Input: Could you tell me which outcome is on file for CN1CCN(CC(=O)Nc2ccc(-c3ccc(-c4nc5ccc(C(F)(F)F)cc5[nH]4)s3)cc2)CC1 ?
Output: inactive

Input: Could you tell me which outcome is on file for COc1cc(Cc2cnc(N)nc2N)cc(OCCCCCCN2C(=O)c3ccccc3C2=O)c1OC ?
Output: inactive

Input: Could you tell me which outcome is on file for CCC(Cc1cnc2nc(N)nc(N)c2n1)c1ccc(C(=O)O)cc1 (stereo not given) ?
Output: inactive

Input: Could you tell me which outcome is on file for CNc1ccc(CNCc2ccc(-c3ccc(-c4nc5c(C)cccc5[nH]4)cc3)cc2)cc1 ?
Output: inactive

Input: Could you tell me which outcome is on file for COc1cc(Cc2cnc(N)nc2N)c2c(c1OC)OC(C)C=C2 (stereo not given) ?
Output: inactive

Input: Could you tell me which outcome is on file for Cc1nc(-c2nc(N3CCOCC3)ncc2-c2ccsc2)sc1C ?
Output: inactive

Input: Could you tell me which outcome is on file for COc1cc(NC(=O)Nc2ccc(Br)cc2C(=O)Nc2ccc(Br)cc2)cc(OC)c1OC ?
Output: inactive

Input: Could you tell me which outcome is on file for O=C(NC1CCCC1)c1cc2c(=O)n3ccccc3nc2nc1NCCc1ccccc1 ?
Output: inactive

Input: Could you tell me which outcome is on file for NC(N)=Nc1nc(-c2cccc(NC(=O)NCCc3c[nH]c4ccc(OCc5ccccc5)cc34)c2)cs1 ?
Output: inactive

Input: Could you tell me which outcome is on file for CN1CCCN(Cc2ccc(-c3cccc(NC(=O)c4ccc(Cl)cc4)c3)cc2)CC1 ?
Output: inactive

Input: Could you tell me which outcome is on file for COc1ccc2c(C)cc(NCCCN(C)C)nc2c1 ?
Output: inactive
